Tested on: HCC1569;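 also: TDF is a line of transformed human dermal fibroblasts of mesenchymal origin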
Experiment: H1.0 immunofluorescence intensity relative to DMSO (% of DMSO); higher = stronger H1.0 induction, active = 140 or more
Conditions: concentration: 10 µM; 24 h
compounds and their reported H1.0 immunofluorescence intensity
Kindly provide the number alone.

Data request: Entry under review: NC(=O)c1ccc(-c2nc(-c3ccc4c(c3)OCCO4)c(-c3ccccn3)[nH]2)cc1 [Casein Kinase I Inhibitor, D4476] . Reported H1.0 immunofluorescence intensity?
Data returned: 127

Data request: Now this one: Cn1c(NCCN(CCO)CCCc2ccc([N+](=O)[O-])cc2)cc(=O)n(C)c1=O
Data returned: 100

Data request: Now this one: CC1CNc2c(cccc2S(=O)(=O)NC(CCCN=C(N)N)C(=O)N2CCC(C)CC2C(=O)O)C1 (stereo not drawn)
Data returned: 112

Data request: Now this one: O=C(NC(Cc1cc(=O)[nH]c2ccccc12)C(=O)O)c1ccc(Cl)cc1 (stereo not drawn) [Rebamipide]
Data returned: 105

Data request: Now this one: COc1ccc(C2CC(c3ccccc3)=NN2c2ccc(S(N)(=O)=O)cc2)cc1 (stereo not drawn)
Data returned: 114

***
Data request: Entry under review: COC(=O)C1=C(C#N)NC(C)=C(C(=O)OC(C)C)C1c1cccc([N+](=O)[O-])c1 (stereo not drawn) . Reported H1.0 immunofluorescence intensity?
Data returned: 123

Data request: Now this one: O=C(O)CN(CCOCCOCCN(CC(=O)O)CC(=O)O)CC(=O)O
Data returned: 88.9

Data request: Now this one: CCCCCC(O)C=CC=CC=CC(O)CC=CCCCC(=O)O [8(R),15(S)-DIHETE all trans]
Data returned: 98.4

Entry source: the supplement of paper PMC7156485
